Tested on: HL-60
Assay: NCI tumour cell line growth inhibition, 48 h
Activity calls are given as the source filed them. No stated cut-off is given here; in the data, active = GI50 up to about 1.1 µM and inactive = higher.
Classes to choose from: active, inactive

// below: answered molecules
> print(dat)
                                    molecule  study.target  class.name
 1       CCOC(=O)c1cc(Br)c(-c2cc(C)co2)[nH]1         HL-60    inactive
 2           Cc1c(O)nc(/C=C/C(=O)O)nc1C(=O)O         HL-60    inactive
 3  O=C(CC(=O)N1N=C(N2c3ccccc3Sc3ccccc32)CC1c1ccccc1)Nc1ccccc1Cl (stereo unspecified)         HL-60    inactive
 4  N#C/C(=C\c1ccc(F)cc1)c1nc2ccccc2c(=O)[nH]1         HL-60    inactive
 5                          NC(=O)NN=C(CS)CS         HL-60      active
 6              Cn1c(=N)n[n+]([O-])c2ccccc21         HL-60    inactive
 7              O=C1NC(=S)N/C1=C\c1ccc(Br)s1         HL-60      active
 8  N#Cc1sc2c(c1OC(=O)c1ccc(C(F)(F)F)cc1)c(=O)n(-c1ccccc1)c(=S)n2-c1ccccc1         HL-60    inactive
 9  O=C1C[C@@H]2[C@@H](c3ccccc3)[C@@H]3C(=O)c4ccccc4NC(=O)[C@H]3[C@]2(O)c2ccccc2N1         HL-60    inactive
10         O=c1c2cc(Br)cc(Br)c2nc(CCCl)n1CCO         HL-60    inactive

Pending molecule:
stdin: For `Nc1ccccc1C(=O)/C=C/c1ccccc1O` , which call appears in the assay record?
stdout: inactive
